Please go through the items and note down their LIVER.
species: Rattus norvegicus; assay: Open TG-GATES - Regimen: Daily Repeat; type: toxicity, organism-based, Sprague-Dawley; set-up: regimen Daily Repeat, gender Male, age 6 weeks; conditions: in vivo, po, 0 mg/kg, […], tissue Liver, route gavage, dose level Control, time 28 day
Express it in g; write the number only.

## Task For the compound CN1C(=O)OC(C)(C)C1=O , what LIVER is on record?
## Result 16.8

## Task For the compound C#C[C@]1(O)CC[C@H]2[C@@H]3CCc4cc(O)ccc4[C@H]3CC[C@@]21C , what LIVER is on record?
## Result 18.3

## Task For the compound CCSCC[C@H](N)C(=O)O , what LIVER is on record?
## Result 16.6

## Task For the compound CC(=N)S [THIOACETAMIDE] , what LIVER is on record?
## Result 15.2

## Task For the compound CCN1CCCC1CNC(=O)c1cc(S(N)(=O)=O)ccc1OC (stereo not given) [SULPIRIDE] , what LIVER is on record?
## Result 14.3

## Task For the compound O=C(N[C@H](CO)[C@H](O)c1ccc([N+](=O)[O-])cc1)C(Cl)Cl , what LIVER is on record?
## Result 17

## Task For the compound CC(C)(S)[C@@H](N)C(=O)O , what LIVER is on record?
## Result 16.3

## Task For the compound CC(=O)Oc1cc(C(C)C)c(OCCN(C)C)cc1C , what LIVER is on record?
## Result 16.3

## Task For the compound C[C@](N)(Cc1ccc(O)c(O)c1)C(=O)O , what LIVER is on record?
## Result 15.4

## Task For the compound C[C@]12CCC(=O)C=C1CC[C@@H]1[C@@H]2CC[C@@]2(C)[C@H]1CC[C@]2(C)O , what LIVER is on record?
## Result 14.9

====

organism: Rattus norvegicus; assay: Open TG-GATES - Regimen: Single; type: toxicity, organism-based, Sprague-Dawley; set-up: regimen Single, gender Male, age 6 weeks; settings: in vivo, po, 0 mg/kg, 9 h, tissue Blood, route gavage, dose level Control
Please go through the items and note down their Neu.
Express it in %; write the number only.

## Task For the compound C[C@](N)(Cc1ccc(O)c(O)c1)C(=O)O , what Neu is on record?
## Result 20.8

## Task For the compound CC(=N)S [THIOACETAMIDE] , what Neu is on record?
## Result 16.2

## Task For the compound CCc1oc2ccccc2c1C(=O)c1cc(I)c(O)c(I)c1 , what Neu is on record?
## Result 14.4

## Task For the compound O=C(O)c1cccnc1 , what Neu is on record?
## Result 13.8

## Task For the compound CC(C)(S)[C@@H](N)C(=O)O , what Neu is on record?
## Result 16.2

## Task For the compound Oc1ncnc2[nH]ncc12 , what Neu is on record?
## Result 18

====

organism: Rattus norvegicus; experiment: Open TG-GATES - Regimen: Daily Repeat; format: toxicity, organism-based, Sprague-Dawley; set-up: regimen Daily Repeat, gender Male, age 6 weeks; settings: in vivo, po, 0 mg/kg, […], tissue Plasma, route gavage, dose level Control, time 7 day
Property: ALP (IU/L)
Express it in IU/L; write the number only.

## Task For the molecule CC(C)(S)[C@@H](N)C(=O)O [PENICILLAMINE] , what ALP is on record?
## Result 1428

## Task For the molecule CC(=N)S [THIOACETAMIDE] , what ALP is on record?
## Result 868.8

## Task For the molecule Oc1ncnc2[nH]ncc12 [ALLOPURINOL] , what ALP is on record?
## Result 874.8

## Task For the molecule CCN1CCCC1CNC(=O)c1cc(S(N)(=O)=O)ccc1OC (stereo unspecified) [SULPIRIDE] , what ALP is on record?
## Result 1380.6

## Task For the molecule CCc1oc2ccccc2c1C(=O)c1cc(I)c(O)c(I)c1 [BENZIODARONE] , what ALP is on record?
## Result 916.8

## Task For the molecule CCSCC[C@H](N)C(=O)O [ETHIONINE] , what ALP is on record?
## Result 874.2

====

species on record: Rattus norvegicus; assay: Open TG-GATES - Regimen: Daily Repeat; assay type: toxicity, organism-based, Sprague-Dawley; design: regimen Daily Repeat, gender Male, age 6 weeks; conditions: in vivo, po, 100 mg/kg, […], tissue Plasma, route gavage, dose level Low, time 7 day
Property: ALT (IU/L)
Express it in IU/L; write the number only.

## Task For the compound O=C(O)c1cccnc1 , what ALT is on record?
## Result 44.4

## Task For the compound CCN1CCCC1CNC(=O)c1cc(S(N)(=O)=O)ccc1OC (centres undefined) [SULPIRIDE] , what ALT is on record?
## Result 45.4

## Task For the compound CC(C)(S)[C@@H](N)C(=O)O , what ALT is on record?
## Result 43.4

## Task For the compound O=C(N[C@H](CO)[C@H](O)c1ccc([N+](=O)[O-])cc1)C(Cl)Cl , what ALT is on record?
## Result 49

====

species on record: Rattus norvegicus; experiment: Open TG-GATES - Regimen: Daily Repeat; type: toxicity, organism-based, Sprague-Dawley; parameters: regimen Daily Repeat, gender Male, age 6 weeks; settings: in vivo, po, 300 mg/kg, […], tissue Blood, route gavage, dose level Middle, time 14 day
Property: Mono (%)
Express it in %; write the number only.

## Task For the molecule O=C(N[C@H](CO)[C@H](O)c1ccc([N+](=O)[O-])cc1)C(Cl)Cl [CHLORAMPHENICOL] , what Mono is on record?
## Result 2.2

## Task For the molecule O=C(O)c1cccnc1 [NIACIN] , what Mono is on record?
## Result 3.4

## Task For the molecule CC(C)(S)[C@@H](N)C(=O)O [PENICILLAMINE] , what Mono is on record?
## Result 2.2

## Task For the molecule CCN1CCCC1CNC(=O)c1cc(S(N)(=O)=O)ccc1OC (centres undefined) [SULPIRIDE] , what Mono is on record?
## Result 2.2

====

species: Rattus norvegicus; assay: Open TG-GATES - Regimen: Daily Repeat; format: toxicity, organism-based, Sprague-Dawley; parameters: regimen Daily Repeat, gender Male, age 6 weeks; details: in vivo, po, 0 mg/kg, 72 h, tissue Blood, route gavage, dose level Control, time 3 day
Please go through the items and note down their MCV.
Express it in fL; write the number only.

## Task For the compound C[C@](N)(Cc1ccc(O)c(O)c1)C(=O)O [METHYLDOPA] , what MCV is on record?
## Result 63.1

## Task For the compound C#C[C@]1(O)CC[C@H]2[C@@H]3CCc4cc(O)ccc4[C@H]3CC[C@@]21C [ETHINYL ESTRADIOL] , what MCV is on record?
## Result 63.8

## Task For the compound Nc1nc(N)c2nc(-c3ccccc3)c(N)nc2n1 , what MCV is on record?
## Result 61.3

## Task For the compound CCSCC[C@H](N)C(=O)O [ETHIONINE] , what MCV is on record?
## Result 61.7

## Task For the compound Oc1ncnc2[nH]ncc12 [ALLOPURINOL] , what MCV is on record?
## Result 66.7

====

organism: Rattus norvegicus; assay: Open TG-GATES - Regimen: Daily Repeat; format: toxicity, organism-based, Sprague-Dawley; parameters: regimen Daily Repeat, gender Male, age 6 weeks; conditions: in vivo, po, 0 mg/kg, […], tissue Blood, route gavage, dose level Control, time 14 day
Please go through the items and note down their Lym.
Express it in %; write the number only.

## Task For the molecule CC(C)(S)[C@@H](N)C(=O)O [PENICILLAMINE] , what Lym is on record?
## Result 80.4

## Task For the molecule CCc1oc2ccccc2c1C(=O)c1cc(I)c(O)c(I)c1 [BENZIODARONE] , what Lym is on record?
## Result 80.8

## Task For the molecule CC(=N)S [THIOACETAMIDE] , what Lym is on record?
## Result 81

## Task For the molecule Oc1ncnc2[nH]ncc12 [ALLOPURINOL] , what Lym is on record?
## Result 76.4

## Task For the molecule CC(=O)Oc1cc(C(C)C)c(OCCN(C)C)cc1C [MOXISYLYTE] , what Lym is on record?
## Result 79.4

## Task For the molecule CCN1CCCC1CNC(=O)c1cc(S(N)(=O)=O)ccc1OC (configuration not stated) [SULPIRIDE] , what Lym is on record?
## Result 77.4

## Task For the molecule CC(C)C(=O)Nc1ccc([N+](=O)[O-])c(C(F)(F)F)c1 [FLUTAMIDE] , what Lym is on record?
## Result 80.8
